Source: patent US20240390468A1

Biological target: T1, MHC class 1 allele A*02:01
T1 construct: also called HLA-A2; HLA-A*02:01
Test: REVEAL R-score, HLA-A*02:01
PROPERTY_MEASURED: R-score
Please give the numeric answer without any surrounding text.

binder="ALSVMGVYV (also called p223; M9-A2-223) [MAGE-A9 223 (MAGE-A9 peptide antigen 223, ALSVMGVYV)]" property_measured=R-score observed=26
binder="FLWGSKAHA (also called p270; M9-A2-270) [MAGE-A9 270 (MAGE-A9 peptide antigen 270, FLWGSKAHA)]" property_measured=R-score observed=22.1
binder="LMLGEFLKL [SurA2.M (survivin peptide antigen HLA-A2, LMLGEFLKL)]" property_measured=R-score observed=22.1

Then there is this binder:
In: Which R-score reading was recorded for the binder KVAELVHFL (also called p111) [MAGE-A9 111 (MAGE-A9 peptide antigen 111, KVAELVHFL)] ?
Out: 20.9
